As shown below, each of these binders has a reported OD450 value.
target.or.test.system: BSA (UniProt P02769)
Sequence (P02769 25-607 limits assumed): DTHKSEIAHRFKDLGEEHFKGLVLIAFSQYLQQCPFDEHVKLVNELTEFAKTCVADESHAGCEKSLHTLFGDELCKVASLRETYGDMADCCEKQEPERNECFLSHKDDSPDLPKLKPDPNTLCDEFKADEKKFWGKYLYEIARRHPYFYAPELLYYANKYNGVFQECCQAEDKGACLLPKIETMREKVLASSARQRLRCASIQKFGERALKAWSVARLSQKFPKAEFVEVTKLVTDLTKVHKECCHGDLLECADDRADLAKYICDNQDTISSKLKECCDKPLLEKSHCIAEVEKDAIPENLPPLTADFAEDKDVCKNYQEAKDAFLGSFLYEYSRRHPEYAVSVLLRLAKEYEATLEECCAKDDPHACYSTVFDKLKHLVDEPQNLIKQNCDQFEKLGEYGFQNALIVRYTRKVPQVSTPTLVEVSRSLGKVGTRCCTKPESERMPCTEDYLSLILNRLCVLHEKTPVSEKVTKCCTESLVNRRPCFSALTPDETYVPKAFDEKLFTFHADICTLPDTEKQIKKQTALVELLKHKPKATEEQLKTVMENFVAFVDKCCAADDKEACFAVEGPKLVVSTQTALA
assay.overview: scFv ELISA
assay.readout: OD450

binder	assay.readout	result
PcOxP_DB03_D11 (scFv, V domains shown, scFv in periplasmic extract) VH: EVQLLESGGGLVQPGGSLRLSCAASGFTFSDFYMEWVRQAPGKGLEWVAASRNKANDYTTEYADSVKGRFTISRDNSKNTLYLQMNSLRAEDTAVYYCARDYYGHSYWYFDVWGQGTLVTVSS VL: DIQMTQSPSSLSASVGDRVTITCTASESLYSSKHKVHYLAWYQQKPGKAPKLLIYGASSRYIGVPSRFSGSGSGTDFTLTISSLQPEDFATYYCAQFYEYPLTFGGGTKVEIK	OD450	0.08 OD450
PcOxP_DB01_E03 (scFv, V domains shown, scFv in periplasmic extract) VH: EVQLLESGGGLVQPGGSLRLSCAASGFGFSDFYMEWVRQAPGKGLEWVGASRNKHNDYTTEYADSVKGRFTISRDNSKNTLYLQMNSLRAEDTAVYYCARDYYGSSYWYFDVWGQGTLVTVSS VL: DIVMTQSPDSLAVSLGERATINCKSSESVYSSKHKKHYLAWYQQKPGQPPKLLIYGASNRYIGVPDRFSGSGSGTDFTLTISSLQAEDVAVYYCAQFYSYPLTFGGGTKVEIK	OD450	0.08 OD450
PcOxP_DB03_E02 (scFv, V domains shown, scFv in periplasmic extract) VH: EVQLLESGGGLVQPGGSLRLSCAASGWTFSDFYMEWVRQAPGKGLEWVAASRNKANDYTTEYADSVKGRFTISRDNSKNTLYLQMNSLRAEDTAVYYCARDYYGSSYWYFDVWGQGTLVTVSS VL: DIQMTQSPSSLSASVGDRVTITCTASESLYSQKHKVHYLAWYQQKPGKAPKLLIYGASNRYIGVPSRFSGSGSGTDFTLTISSLQPEDFATYYCAQFYYYPLTFGGGTKVEIK	OD450	0.11 OD450

Every entry's value here was drawn from patent US20250320312A1.
